The following molecules are listed with their measured viability, T/C values.
- Tested on: 931267-113-T-J1-PDC multicell spheroid viability;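 further: viability read 7 days after compound addition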
- experiment: Anticancer human tumor 931267-113-T-J1-PDC patient-derived colon adenocarcinoma cell line growth inhibition [PI3K]
- study.conditions: second compound 10 µM; first compound 0.0316 µM; hits give low values
Please reply with the bare figure in % and do not write the unit itself.

// solved cases for viability, T/C follow
[
  {
    "molecule": "C=CC(=O)N1CCN(c2nc(=O)n(-c3c(C)ccnc3C(C)C)c3nc(-c4c(O)cccc4F)c(F)cc23)C(C)C1 (stereo not given) + CC(Nc1ncnc2nc[nH]c12)c1cc2cccc(Cl)c2c(=O)n1-c1ccccc1",
    "outcome.measure": "viability, T/C",
    "display.unit": "%",
    "recorded.value": 94.9
  },
  {
    "molecule": "C=CC(=O)N1CCN(c2nc(=O)n(-c3c(C)ccnc3C(C)C)c3nc(-c4c(O)cccc4F)c(F)cc23)C(C)C1 (stereo not given) + Cc1nc(NC(=O)N2CCCC2C(N)=O)sc1-c1ccnc(C(C)(C)C(F)(F)F)c1",
    "outcome.measure": "viability, T/C",
    "display.unit": "%",
    "recorded.value": 54.6
  },
  {
    "molecule": "CCN1CCN(Cc2ccc(Nc3ncc(F)c(-c4cc(F)c5nc(C)n(C(C)C)c5c4)n3)nc2)CC1 + Cc1nc(NC(=O)N2CCCC2C(N)=O)sc1-c1ccnc(C(C)(C)C(F)(F)F)c1",
    "outcome.measure": "viability, T/C",
    "display.unit": "%",
    "recorded.value": 50.1
  },
  {
    "molecule": "CC(C)NCC(C(=O)N1CCN(c2ncnc3c2C(C)CC3O)CC1)c1ccc(Cl)cc1 (stereo not given) + Cc1nc(NC(=O)N2CCCC2C(N)=O)sc1-c1ccnc(C(C)(C)C(F)(F)F)c1",
    "outcome.measure": "viability, T/C",
    "display.unit": "%",
    "recorded.value": 60.4
  }
]

Asked: Entry under review: CC(Cn1ccc(-c2ccc(C#N)c(Cl)c2)n1)NC(=O)c1cc(C(C)O)[nH]n1 (stereo not given) + CC(Nc1ncnc2nc[nH]c12)c1cc2cccc(Cl)c2c(=O)n1-c1ccccc1 . Reported viability, T/C?
Given back: 88

// data source = PubChem BioAssay AID1963970
